These measurements were taken from PubChem BioAssay (Tox21).

assay: qHTS assay for small molecule agonists of the antioxidant response element (ARE) signaling pathway (AID 743202); conditions: HepG2 ARE-bla reporter, beta-lactamase FRET, 16 h; series mostly up to 73.3 µM; on activation: on the % scale 0 is the no-effect control and ±100 the full control effect
Inconclusive results are not listed. Activity calls are given as the source filed them. The call rests on the fitted dose curve; in most records, active means well fitted activation curve with a large enough effect in the signal ratio in the repeat runs (not every such curve was filed as active); inconclusive means weak or mixed curves, or effect the other way; inactive means no such curve, though single readings can be large or run the other way; the % refers to the signal ratio.
Assign a class; possible classes are active, inactive

Some solved cases for reference:
| compound | qualitative label |
| --- | --- |
| CN1CCC[C@@H]1c1cccnc1 | inactive |
| COC(=O)C(C)=O | inactive |
| CC[C@H](C)[C@H](N)C(=O)O | inactive |
| CCCCCCCCC(CO)CCCCCC (configuration not stated) | inactive |
| CCCCCCOC(=O)CCC | inactive |
| O=C(c1ccc(O)cc1)c1ccc(O)cc1 | inactive |

I would be grateful if you could indicate the recorded call for OCC1CC2CC1C1CCC(CO)C21 (configuration not stated) .
inactive

I would be grateful if you could indicate the recorded call for CCCCc1cc2ccccc2c(OCCN(C)C)n1 .
inactive

I would be grateful if you could indicate the recorded call for CC(C)(C)C(=O)OCOP(=O)(COCCn1cnc2c(N)ncnc21)OCOC(=O)C(C)(C)C .
active

I would be grateful if you could indicate the recorded call for O=C(O)Cc1cc(I)c(Oc2ccc(O)c(I)c2)c(I)c1 .
active

I would be grateful if you could indicate the recorded call for O=C(O)C(c1ccc(Cl)cc1)c1ccc(Cl)cc1 .
inactive

I would be grateful if you could indicate the recorded call for Cc1ccccn1 .
inactive

---

assay: Human pregnane X receptor (PXR) small molecule agonists, qHTS cell viability counter screen (AID 1346977); settings: PXR-Luc HepG2 viability, CellTiter-Fluor, 24 h; series mostly up to 92.4 µM; further: on the % scale 0 is the no-effect control and ±100 the full control effect; nearly all actives have a fitted effect of over 50% in size
Records with an inconclusive call do not appear. The source made the active and inactive calls. The call rests on the fitted dose curve; in most records, active means well fitted cell-killing curve with a large enough effect in the repeat runs; inconclusive means weak or mixed curves, or effect the other way; inactive means flat fitted curve, though single readings scatter.
Assign a class; possible classes are true (1) for active, false (0) for inactive

Some solved cases for reference:
| molecule | qualitative label |
| --- | --- |
| CC(C(=O)O)c1ccc(-c2ccccc2)c(F)c1 (stereo not given) | false (0) |
| CCCCOC(=O)c1ccccc1C(=O)OCC(CC)CCCC (stereo not given) | false (0) |
| O=C(Cl)c1c(Cl)cccc1Cl | false (0) |
| CCN(CC)C(C)CN1c2ccccc2Sc2ccccc21 (stereo not given) | false (0) |
| CCCCCCCCN(C)C | false (0) |

I would be grateful if you could indicate the recorded call for SC1CCCC1 .
false (0)

I would be grateful if you could indicate the recorded call for Cc1cccc(Oc2ccccc2)c1 .
false (0)

I would be grateful if you could indicate the recorded call for CC1=CC(=O)/C(=C(/C)O)C(=O)O1 .
false (0)

I would be grateful if you could indicate the recorded call for CCCCCc1ccc(N)cc1 .
false (0)

---

Experiment: qHTS assay to identify small molecule antagonists of the estrogen receptor beta (ER-beta) signaling pathway - cell viability counter screen (AID 1259382);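 further: HEK293T cells carrying ER-beta-UAS-bla reporter stimulated with estradiol; on the % scale 0 is the no-effect control and ±100 the full control effect; nearly all actives have a fitted effect of over 55% in size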
Settings: ER-beta-UAS-bla HEK293T viability, CellTiter-Glo luminescence, 16 h; series mostly up to 92.4 µM
Description: U.S. Tox21 Program National Center for Advancing Translational Sciences [NCATS] NIH Chemical Genomics Center [NCGC] U.S. Environmental Protection Agency [EPA] National Institutes of Environmental Health Sciences [NIEHS] National Toxicology Program [NTP] U.S. Food and Drug Administration [FDA] Tox21 Assay Overview: Estrogen receptor (ER), a nuclear hormone receptor, plays an important role in development, metabolic homeostasis and reproduction. […]
Results filed as inconclusive are left out. Activity calls are given as the source filed them. The call rests on the fitted dose curve; in most records, active means well fitted cell-killing curve with a large enough effect in the repeat runs; inconclusive means weak or mixed curves; inactive means flat fitted curve, though single readings scatter.
assay endpoint: activity change, negative = cytotoxicity

Take a look at these entries with their results.
| molecule | activity change, negative = cytotoxicity |
| --- | --- |
| CC[C@@H]1C[C@H](N(Cc2cc(C(F)(F)F)cc(C(F)(F)F)c2)C(C)=O)c2cc(C(F)(F)F)ccc2N1C(=O)OC(C)C | inactive |
| O=C(O)/C=C/c1cnc[nH]1 | inactive |
| OC(CCN1CCCCC1)(c1ccccc1)C1CCCCC1 (configuration not stated) | inactive |
| CN(C)CCCOc1nn(Cc2ccccc2)c2ccccc12 | inactive |
| O=C(O)Cc1cc(I)c(Oc2ccc(O)c(I)c2)c(I)c1 | inactive |

State the recorded activity change, negative = cytotoxicity for this entry: CC(C)NCC(O)COc1ccc(CC(N)=O)cc1 (configuration not stated)
inactive

State the recorded activity change, negative = cytotoxicity for this entry: CC1=CCC(C(C)C)C=C1 (configuration not stated)
inactive

---

assay: qHTS assay to identify small molecule antagonists of the thyroid receptor (TR) signaling pathway (AID 743065); details: GH3.TRE-Luc, T3-stimulated luciferase inhibition, 23.5 h; series mostly up to 70.3 µM; further: nearly all actives have a fitted effect of over 55% in size
Records with an inconclusive call do not appear. Calls of active or inactive are those of the source. Calls follow the shape of the dose curve; as a rule, active = well fitted inhibition curve with a large enough effect in the repeat runs; inconclusive = weak or mixed curves; inactive = no such curve, though single readings can be large or run the other way.
Assign a class; possible classes are YES = active, NO = inactive

Some solved cases for reference:
| compound | qualitative label |
| --- | --- |
| CC(C)CCCCCCOC(=O)c1ccc(C(=O)OCCCCCCC(C)C)c(C(=O)OCCCCCCC(C)C)c1 | NO |
| c1ccc(OCc2ccc(CCCN3CCOCC3)cc2)cc1 | YES |
| CCN(CC)CCOC(=O)C1(c2ccccc2)CCCC1 | NO |
| Nc1cnn([C@@H]2O[C@H](CO)[C@@H](O)[C@H]2O)c(=O)n1 | NO |
| CCOC(=O)[C@H](CCc1ccccc1)N[C@H]1CCc2ccccc2N(CC(=O)O)C1=O | YES |
| CC(C)CCCC(C)CCO (configuration not stated) | NO |

Let's switch to this compound now.
I would be grateful if you could indicate the recorded call for Nc1nc(N)c(-c2ccccc2)s1 .
NO

---

assay: qHTS assay for identifying genotoxic compounds that show differential cytotoxicity against isogenic chicken DT40 cell lines with known DNA damage response pathways - wild type cell line (AID 743012); details: DT40 wild type chicken cells viability, CellTiter-Glo, 40 h; series mostly up to 68.4 µM; further: on the % scale 0 is the no-effect control and ±100 the full control effect; nearly all actives have a fitted effect of over 60% in size
Inconclusive results are not listed. Calls of active or inactive are those of the source. Calls come from the whole dose curve; as a rule, active = well fitted cell-killing curve with a large enough effect in the repeat runs; inconclusive = weak or mixed curves, or effect the other way; inactive = no such curve, though single readings can be large or run the other way.
assay endpoint: outcome

| smiles entry | value observed |
| --- | --- |
| SC1CCCC1 | inactive |
| CCCCCCOC(=O)CCC | inactive |
| CC(=O)c1c(C)c([N+](=O)[O-])c(C(C)(C)C)c([N+](=O)[O-])c1C | inactive |

---

biological target: Nuclear receptor subfamily 1 group I member 3 (Homo sapiens) (UniProt Q14994); assay: qHTS assay to identify small molecule antagonists of the constitutive androstane receptor (CAR) signaling pathway (AID 1224838); conditions: HepG2-CYP2B6-hCAR luciferase, CITCO-stimulated, 24 h; series mostly up to 92.4 µM;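 further: HepG2 cells stably expressing hCAR with CYP2B6 luciferase reporter stimulated by CITCO; nearly all actives have a fitted effect of over 40% in size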
Sequence (Q14994 whole entry, looked up): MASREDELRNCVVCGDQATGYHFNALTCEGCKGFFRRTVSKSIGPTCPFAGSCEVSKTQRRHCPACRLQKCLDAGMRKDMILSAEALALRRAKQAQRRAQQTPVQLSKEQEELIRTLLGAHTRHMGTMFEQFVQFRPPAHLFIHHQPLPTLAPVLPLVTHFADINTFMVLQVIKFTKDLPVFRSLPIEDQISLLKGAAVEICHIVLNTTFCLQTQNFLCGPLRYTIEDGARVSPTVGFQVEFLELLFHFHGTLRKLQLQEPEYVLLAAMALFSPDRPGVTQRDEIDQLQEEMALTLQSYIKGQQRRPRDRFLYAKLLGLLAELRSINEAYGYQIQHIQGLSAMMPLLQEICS
Records with an inconclusive call do not appear. Calls of active or inactive are those of the source. Calls come from the whole dose curve; as a rule, active = well fitted inhibition curve with a large enough effect in the repeat runs; inconclusive = weak or mixed curves, or effect the other way; inactive = no such curve, though single readings can be large or run the other way.
Assign a class; possible classes are 1 = active, -1 = inactive

Some solved cases for reference:
| molecule | assay target | qualitative label |
| --- | --- | --- |
| c1ccc(OCc2ccc(CCCN3CCOCC3)cc2)cc1 | Nuclear receptor subfamily 1 group I member 3 (Homo sapiens) (UniProt Q14994) | -1 |
| CCN(CC)C(C)CN1c2ccccc2Sc2ccccc21 (configuration not stated) | Nuclear receptor subfamily 1 group I member 3 (Homo sapiens) (UniProt Q14994) | -1 |
| Cn1sccc1=O | Nuclear receptor subfamily 1 group I member 3 (Homo sapiens) (UniProt Q14994) | 1 |
| CCCCCc1ccc(N)cc1 | Nuclear receptor subfamily 1 group I member 3 (Homo sapiens) (UniProt Q14994) | -1 |
| CC(=O)c1c(C)c([N+](=O)[O-])c(C(C)(C)C)c([N+](=O)[O-])c1C | Nuclear receptor subfamily 1 group I member 3 (Homo sapiens) (UniProt Q14994) | -1 |
| O=C1Nc2cc(Cl)ccc2Oc2ccccc21 | Nuclear receptor subfamily 1 group I member 3 (Homo sapiens) (UniProt Q14994) | -1 |

Let's switch to this molecule now.
I would be grateful if you could indicate the recorded call for C=CC[N+]1([C@H]2C[C@H]3[C@@H]4CC[C@H]5C[C@H](OC(C)=O)[C@@H](N6CCCCC6)C[C@]5(C)[C@H]4CC[C@]3(C)[C@H]2OC(=O)CC)CCCCC1 .
-1

---

assay: qHTS assay to identify small molecule agonists of the endoplasmic reticulum stress response signaling pathway - cell viability counter screen (AID 1159517); conditions: ESRE-bla HeLa viability, CellTiter-Glo luminescence, 5 h; series mostly up to 61 µM;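 further: HeLa cells carrying an ER stress response element beta-lactamase reporter; on the % scale 0 is the no-effect control and ±100 the full control effect; nearly all actives have a fitted effect of over 50% in size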
Results filed as inconclusive are left out. Calls of active or inactive are those of the source. The call rests on the fitted dose curve.
assay endpoint: activity change, negative = cytotoxicity

Take a look at these entries with their results.
| molecule | activity change, negative = cytotoxicity |
| --- | --- |
| CC(=O)SCc1ccco1 | inactive |
| CC(C)c1ccc2c(C(C)C)cc(C(C)C)c(S(=O)(=O)O)c2c1 | inactive |
| NC(N)=NN=C(/C=C/c1ccc([N+](=O)[O-])o1)/C=C/c1ccc([N+](=O)[O-])o1 | inactive |
| CCOC(=O)CC(C)C | inactive |
| COc1ccc(C(C)=O)cc1 | inactive |

State the recorded activity change, negative = cytotoxicity for this entry: Nc1nc(N)c(-c2ccccc2)s1
inactive
